Test system: BT-549
test-name: cells
test-context: Homo sapiens, BT-549, 24 h
Description: Antiproliferative activity against human BT-549 cells assessed as inhibition of cell growth incubated for 24 hrs by MTT assay
observation-type: pIC50
Value format note: pIC50 is -log10 of concentration (mol/L); just state the number.

Quick one: pIC50 of `O=C(Nc1ccc(C(=O)N/N=C/c2cccc(Cl)c2)cc1)Nc1ccc2ncccc2c1` ?
5.41

----------
Answer each item with its documented IC50.
test-name: Cytotoxicity in HaCaT cells assessed as inhibition of cell growth by MTT assay
Type: toxicity, cell-based
test-context: human

Quick one: IC50 of `O=C(Nc1ccc(C(=O)N/N=C/c2cccc(Cl)c2)cc1)Nc1ccc2ncccc2c1` ?
> 50 µM

Quick one: IC50 of `O=C(Nc1ccc(C(=O)N/N=C/c2cccc(Cl)c2)cc1)Nc1cccc2ncccc12` ?
> 50 µM

Quick one: IC50 of `O=C(N/N=C/c1ccc(Cl)cc1)c1ccc2ncccc2c1` ?
> 50 µM

src = ChEMBL document CHEMBL6182894
